Can you tell me log2 fold change of degron read counts for the items I'm about to list?
- tgt: T1, CRBN, Q96SW2
- T1 chain: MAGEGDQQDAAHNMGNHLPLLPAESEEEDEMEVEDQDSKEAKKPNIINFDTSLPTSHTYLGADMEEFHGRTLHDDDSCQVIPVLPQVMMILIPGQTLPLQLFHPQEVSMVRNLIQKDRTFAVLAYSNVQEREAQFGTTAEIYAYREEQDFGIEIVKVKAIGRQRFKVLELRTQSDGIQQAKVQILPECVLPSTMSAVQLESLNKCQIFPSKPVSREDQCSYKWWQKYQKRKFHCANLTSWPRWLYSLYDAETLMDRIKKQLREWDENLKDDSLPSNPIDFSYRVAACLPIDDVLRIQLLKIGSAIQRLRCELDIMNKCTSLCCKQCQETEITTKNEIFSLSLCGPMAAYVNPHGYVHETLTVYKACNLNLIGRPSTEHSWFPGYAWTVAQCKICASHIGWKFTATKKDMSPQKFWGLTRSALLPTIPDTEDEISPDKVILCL
- experiment: log2 fold change of degron read counts, EGFP-low vs EGFP+ sorted cells (limma voom), compound-induced degradation; higher = more compound-induced degradation of the degron-EGFP fusion; degrons are variants of IKZF1/3 zinc finger 2; compound dose not given here;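 also: pooled lentiviral library of zinc finger degron-EGFP fusions in mCherry-positive Jurkat cells, FACS-sorted after compound exposure, with degron abundance counted by next-generation sequencing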
- condition-notes: Jurkat; 18 h; compound: compound 22 (5-morpholino-thalidomide)
Over roughly 8,300 sequences, “log2 fold change of degron read counts, EGFP-low vs EGFP+ sorted cells (limma voom), compound-induced degradation” has its median near -1.1; the highest 2% begin near 3.2. The full list was thinned out, with the highest values kept by preference.
One number for each entry.

Respectfully, I request log2 fold change of degron read counts for each entry included below.
1. FICPICGANFTQKGNLLRHIKL [46F_47I_49P_50I_52G_53A_54N_55F_67L_, Q9UKT9]
2. FGCEVCGAGFTQKGNLLRHIKL [46F_47G_49E_50V_52G_53A_54G_55F_67L_, Q9UKT9]
3. FICEVCGAGFTQKGNLLRHIKL [46F_47I_49E_50V_52G_53A_54G_55F_67L_, Q9UKT9]
4. FACPICGANFTQKGNLLRHIKL [46F_47A_49P_50I_52G_53A_54N_55F_67L_, Q9UKT9]

## Result
[2.74, -0.105, 2.66, 1.85]
